Where do the numbers come from? From ChEMBL document CHEMBL1129022.

tested on: Staphylococcus aureus; assay: Compound was tested in vitro for antibacterial activity against methicillin-susceptible Staphylococcus aureus UC 9213.; assay type: functional
For each record, write down the corresponding MIC.
Reply with just the number (in µg/mL).

Task item: Entry COc1ccc(-c2ccc(N3CC(CNC(C)=O)OC3=O)cc2)ccc1=O (centres undefined) , system Staphylococcus aureus: what MIC was measured?
Reply: 2

Task item: Entry COc1ccc(-c2ccc(N3CC(CNC(C)=O)OC3=O)cc2C(F)(F)F)ccc1=O (centres undefined) , system Staphylococcus aureus: what MIC was measured?
Reply: 32

Task item: Entry COc1ccc(-c2ccc(N3C[C@H](CNC(C)=O)OC3=O)cc2F)ccc1=O , system Staphylococcus aureus: what MIC was measured?
Reply: 1

Task item: Entry C#CCNc1ccc(-c2ccc(N3C[C@H](CNC(C)=O)OC3=O)cc2F)ccc1=O , system Staphylococcus aureus: what MIC was measured?
Reply: 1

Task item: Entry COc1ccc(-c2ccc(N3CC(CNC(C)=O)OC3=O)cc2Cl)ccc1=O (centres undefined) , system Staphylococcus aureus: what MIC was measured?
Reply: 4

Task item: Entry COc1ccc(-c2c(F)cc(N3CC(CNC(C)=O)OC3=O)cc2F)ccc1=O (centres undefined) , system Staphylococcus aureus: what MIC was measured?
Reply: 2

Task item: Entry C/N=c1\ccc(-c2ccc(N3C[C@H](CNC(C)=O)OC3=O)cc2F)ccc1O , system Staphylococcus aureus: what MIC was measured?
Reply: 0.5

Task item: Entry COc1ccc(-c2ccc(N3CC(CNC(C)=O)OC3=O)cc2F)ccc1=O (centres undefined) , system Staphylococcus aureus: what MIC was measured?
Reply: 1

Task item: Entry COc1ccc(-c2c(F)cc(N3C[C@H](CNC(C)=O)OC3=O)cc2F)ccc1=O , system Staphylococcus aureus: what MIC was measured?
Reply: 1
